All values here come from patent US20180141988A1.

molecular target: T1, Human GPC3 (2119-GP; R&D systems), biotinylated (human, UniProt P51654 25-559, biotinylated using standard NHS chemistry); assay: SPR (Biacore T200), biotinylated GPC3 captured on chip, mutein in flow
T1 construct: Bought protein; also called human Glypican-3
T1 sequence (P51654 25-559 limits assumed): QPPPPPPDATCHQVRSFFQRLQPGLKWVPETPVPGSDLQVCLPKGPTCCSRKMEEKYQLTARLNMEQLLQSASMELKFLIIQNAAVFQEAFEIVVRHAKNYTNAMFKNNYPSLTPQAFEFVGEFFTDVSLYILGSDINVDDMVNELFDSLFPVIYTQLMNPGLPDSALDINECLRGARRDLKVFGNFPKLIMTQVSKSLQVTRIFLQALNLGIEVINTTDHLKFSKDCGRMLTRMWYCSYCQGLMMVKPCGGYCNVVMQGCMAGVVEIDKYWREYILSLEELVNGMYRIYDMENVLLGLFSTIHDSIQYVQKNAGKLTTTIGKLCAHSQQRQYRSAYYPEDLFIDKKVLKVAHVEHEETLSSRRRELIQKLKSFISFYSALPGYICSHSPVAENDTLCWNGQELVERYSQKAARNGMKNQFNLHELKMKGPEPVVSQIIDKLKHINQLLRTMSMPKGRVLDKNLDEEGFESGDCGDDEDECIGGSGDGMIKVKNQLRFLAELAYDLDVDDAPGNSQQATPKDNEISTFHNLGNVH
test_readout: kon (M⁻¹ s⁻¹)
# value in M⁻¹ s⁻¹; strip the unit string

Before answering, review these 3 worked examples.
- binder: "lipocalin mutein of SEQ ID NO: 7 (designed binder, hNGAL (Lcn2) mutein; also called optimized GPC3 specific lipocalin mutein) QDSTSDLIPAPPLSKVPLQQNFQDNQFQGKWYVVGVAGNGMLREDKDPLKMRATIYELKEDKSYDVTSVAFRNKKCHYKIGTFVPGSQPGEFTLGQIKSGPGETSNLVRVVSTNYNQHAMVFFKEVRQNREWFFITLYGRTKELTSELKENFIRFSKSLGLPENHIVFPVPIDQCIDGSAWSHPQFEK"
  test_readout: "kon"
  unit_label: "M⁻¹ s⁻¹"
  numeric_readout: "1.3e+06"
- binder: "lipocalin mutein of SEQ ID NO: 5 (designed binder, hNGAL (Lcn2) mutein; also called optimized GPC3 specific lipocalin mutein) QDSTSDLIPAPPLSKVPLQQNFQDNQFQGKWYVVGVAGNALLREDKDPLKMRATIYELKEDKSYDVTVVSFWRKKCHYKIGTFVPGSQPGEFTLGDIKSGPGQTSNLVRVVSTNYNQHAMVFFKEVRQNREWFAITLYGRTKELTSELKENFIRFSKSLGLPENHIVFPVPIDQCIDGSAWSHPQFEK"
  test_readout: "kon"
  unit_label: "M⁻¹ s⁻¹"
  numeric_readout: "1.6e+06"
- binder: "lipocalin mutein of SEQ ID NO: 11 (designed binder, hNGAL (Lcn2) mutein; also called optimized GPC3 specific lipocalin mutein) QDSTSDLIPAPPLSKVPLQQNFQDNQFQGKWYVVGRAGNVALREDKDPPKMRATIYELKEDKSYDVTAVRFARKKCLYSIGTFVPGSQPGEFTLGRIKSEPGYTANLVRVVSTNYNQHAMVFFKEVYQNREIFFIILYGRTKELTSELKENFIRFSKSLGLPENHIVFPVPIDQCIDGSAWSHPQFEK"
  test_readout: "kon"
  unit_label: "M⁻¹ s⁻¹"
  numeric_readout: "1.7e+06"

// kon value for lipocalin mutein of SEQ ID NO: 8 (designed binder, hNGAL (Lcn2) mutein; also called optimized GPC3 specific lipocalin mutein) QDSTSDLIPAPPLSKVPLQQNFQDNQFQGKWYVVGRAGNVGLREDKDPPKMWATIYELKEDKSYDVTNVRFARKKCLYSIGTFVPGSQPGEFTLGQIKSEPGNTANLVRVVSTNYNQHAMVFFKEVYQNREIFFIILYGRTKELTSELKENFIRFSKSLGLPENHIVFPVPIDQCIDGSAWSHPQFEK : 2e+06

Please fill in: kon reported for lipocalin mutein of SEQ ID NO: 13 (designed binder, hNGAL (Lcn2) mutein; also called optimized GPC3 specific lipocalin mutein) QDSTSDLIPAPPLSKVPLQQNFQDNQFQGKWYVVGRAGNLGLREDKDPPKMWATIYELKEDKSYDVTNVRFARKKCMYSIGTFVPGSQPGEFTLGQIKSEPGSTANLVRVVSTNYNQHAMVFFKEVYQNREIFFITLYGRTKELTSELKENFIRFSKSLGLPENHIVFPVPIDQCIDGSAWSHPQFEK = 2.6e+06

The measured kon associated with lipocalin mutein of SEQ ID NO: 3 (designed binder, hNGAL (Lcn2) mutein; also called non-optimized GPC3-specific Lcn2 mutein; mother clone) QDSTSDLIPAPPLSKVPLQQNFQDNQFHGKWYVVGVAGNAMLREDKDPLKMRATIYELKEDKSYNVTGVSFWRKKCHYKIGTFVPGSQPGEFTLGDIKSGPGQTSNLVRVVSTNYNQHAMVFFKEVRQNREWFAITLYGRTKELTSELKENFIRFSKSLGLPENHIVFPVPIDQCIDGSAWSHPQFEK reads 560000

// sample lipocalin mutein of SEQ ID NO: 16 (designed binder, hNGAL (Lcn2) mutein; also called optimized GPC3 specific lipocalin mutein) QDSTSDLIPAPPLSKVPLQQNFQDNQFQGKWYVVGRAGNVGLREDKDPPKMRATIYELKEDKSYDVTGVRFDSKKVTYSIGTFVPGSQPGEFTLGQIKSEPGNTANLVRVVSTNYNQHAMVFFKEVYQNREIFFIILYGRTKELTSELKENFIRFSKSLGLPENHIVFPVPIDQAIDGSAWSHPQFEK , its kon was 670000

Quick note, kon for lipocalin mutein of SEQ ID NO: 15 (designed binder, hNGAL (Lcn2) mutein; also called optimized GPC3 specific lipocalin mutein) QDSTSDLIPAPPLSKVPLQQNFQDNQFQGKWYVVGRAGNVGLREDKDPPKMRATIYELKEDKSYDVTGVRFGEKKIKYSIGTFVPGSQPGEFTLGQIKSQPGDTANLVRVVSTNYNQHAMVFFKEVYQNREIFFIILYGRTKELTSELKENFIRFSKSLGLPENHIVFPVPIDQAIDGSAWSHPQFEK landed at 1.4e+06
